PROTOCOL DETAILS: yeast display, Sf9 membrane polyspecificity reagent, FACS + sequencing; frameworks hold sequencing errors
READOUT KIND: polyreactivity (PSR sort gate)

The following sequences have reported results that may help.
ORDERED RESIDUES | READOUT KIND | ASSAY VALUE
QVQLVESGGGLVQAGGSLRLSCAASGFTSYLYTMGWYRQAPGKERELVATITLRGGSTYYADSVKGRFTISRDNAKNTVYLQMNSLKPEDTAVYYCAAPAYLTSHSRYDYWGQGTQVSVSS | polyreactivity (PSR sort gate) | high polyreactivity
QVQLVESVGGLVQAGGSLRLSCAASGRILRTNALGWYRKAPGKERELVAAISSDGSTYYADSVKGRFTISRDNAKNTVYLQMNSLKPEDTAVYYCAARLFYRGPRFDYWGQGTQVTVSS | polyreactivity (PSR sort gate) | low polyreactivity
QVQLVDSGGGLVQAGGSLRLSCAASGRIFRLYAMGWYRPAPGKERELVATITRSGVSTYYADSVKGRFTISRDNAKNTVYLQMNSLKPEDTAVYYCAVDRWGRYYATQYTFDYWGQGTQVTVSS | polyreactivity (PSR sort gate) | high polyreactivity
QVQLVESGGGLVQAGGSLRLSCAASGFIFNRYAMGWYRQAPGKERELVAGITSSGGSTYYADSVKGRFTISRDNAKNTVYLQMNSLKPEDTAVYYCNADSWLYRFFGYDYWGQGTQVTVSS | polyreactivity (PSR sort gate) | low polyreactivity

Q: Let me know recorded polyreactivity (PSR sort gate) for "QVQLVESGGGIVQAGGSLRLSCAASGSTIDKNAMGWYRQAPGKERELVAAINNGGGTTYYADSVKGRFTISRDNAKNTVFLQMNSLKPEDTAVYYCAAVGKAYWSDYQYRYYYWGQGTQVTVSS" , thanks.
Ans: low polyreactivity

FYI, the data here is from the nanobody polyreactivity screen of Harvey et al. (2022).
